Here we gather IC50 data for Coagulation factor XI (Homo sapiens, UniProt P03951) reported by several publications.

# annotated cases, reported IC50 shown
| compound | IC50 |
| --- | --- |
| CNC(=O)COC(=O)c1[nH]c(C)c(C(C)=O)c1C | > 50 µM |
| Cc1cnn(Cc2ccc(CNC(=O)c3cncc(N4CC[C@]5(C4)OC(=O)Nc4ccc(Cl)c(F)c45)c3)cn2)c1 | 10 µM |

GET /values?item= CC(C)(C)C(=O)Nc1ccc(C(=O)NN=Cc2ccccc2OC(=O)c2ccccc2)cc1 &system= Coagulation factor XI (Homo sapiens, UniProt P03951) returns IC50: > 50 µM

Note to self: IC50 of CN(Cc1ccon1)C(=O)CC1C(=O)NCCN1CC1CCCCC1 (centres undefined) with Coagulation factor XI (Homo sapiens, UniProt P03951) was > 50 µM

IC50 of CN1C(=O)C(=NOC(=O)c2ccccc2)c2ccccc21 , assay on Coagulation factor XI (Homo sapiens, UniProt P03951), is 25.9 µM

Given the compound O=c1c(-c2cc3ccccc3o2)[n+]([O-])c2ccccc2n1OCc1ccccn1 and test system Coagulation factor XI (Homo sapiens, UniProt P03951), the measured IC50 is > 50 µM

Let me check: O=S(=O)([N-]c1nc2ccccc2nc1-[n+]1ccn(Cc2ccccc2)c1)c1ccc(Cl)cc1 , system Coagulation factor XI (Homo sapiens, UniProt P03951), measured IC50 is > 50 µM

Log: Coagulation factor XI (Homo sapiens, UniProt P03951), compound CCN(C(=O)COC(=O)/C=C/c1c(C)nn(-c2ccccc2)c1C)C1CCS(=O)(=O)C1 (centres undefined) , IC50 = > 50 µM

Record for CC1(O)CN(c2ccc(CNC(=O)c3cncc(N4CC[C@]5(C4)OC(=O)Nc4ccc(Cl)c(F)c45)n3)cn2)C1 under target or system Coagulation factor XI (Homo sapiens, UniProt P03951): IC50 reported as ≥ 10 µM

Field IC50 (Coagulation factor XI (Homo sapiens, UniProt P03951)), entry COc1cc(OC)cc(-c2nnc(SCc3cccc(C(=O)O)c3)o2)c1 : > 50 µM

Value (IC50, Coagulation factor XI (Homo sapiens, UniProt P03951)) for record Cc1onc(-c2ccccc2)c1C(=O)N(Cc1ccco1)Cc1cccs1 = > 50 µM

Coagulation factor XI (Homo sapiens, UniProt P03951) IC50 of C=CCOC(=O)C1C(C)=Nc2[nH]c(=O)[nH]c(=O)c2C1c1ccccc1 (centres undefined) is > 50 µM

Bench note, Coagulation factor XI (Homo sapiens, UniProt P03951): entry Cc1cc(C)cc(NC(=O)c2ccc([N+](=O)[O-])o2)c1 , its IC50 = > 50 µM

---

The following compounds were reported with IC50 values on UniProt:P03951 in different studies.

| compound | IC50 |
| --- | --- |
| O=C(NC(C(=O)c1ccccc1)n1c(=O)cc[nH]c1=S)c1ccccc1 (stereo not given) | > 50 µM |
| CN1CCN(c2ccc(CNC(=O)c3cncc(N4CC[C@]5(C4)OC(=O)Nc4ccc(Cl)c(F)c45)n3)cn2)CC1 | 10 µM |
| Cc1ccc(C(=O)n2nc(-c3cccnc3)nc2N)cc1 | > 50 µM |
| O=[N+]([O-])c1ccc(OCCO)c(P(=O)(c2ccccc2)c2ccccc2)c1 | > 50 µM |

Now look at this entry.
The reported value for Cc1cccc(NC(=O)c2cc(-n3c(O)ccc3O)ccc2Cl)n1 in terms of IC50 is > 50 µM
